# Test system: 485368-065-R3-J5-PDC spheroids with HUVEC/MSC, viability
# EXPERIMENT SUMMARY: Anticancer human tumor 485368-065-R3-J5-PDC patient-derived pancreatic carcinoma cell line growth inhibition [RAS]
# CONDITION PARAMETERS: second compound 0.3 µM; first compound 1 µM; stronger effect = lower value
EXPERIMENTAL READOUT: viability, T/C (%)
# unit: % | format: bare number

1) C[C@@H](NC(=O)c1ncnc(N)c1Cl)c1ncc(C(=O)Nc2cc(C(F)(F)F)c(Cl)cn2)s1 + CCn1c(-c2cc(N3CCN(C)CC3)cnc2C(C)OC)c2c3cc(ccc31)-c1csc(n1)CC(NC(=O)C1CC1C)C(=O)N1CCCC(N1)C(=O)OCC(C)(C)C2
11

Then this compound:
What value of viability, T/C on 485368-065-R3-J5-PDC spheroids with HUVEC/MSC, viability does C=CC(=O)N1CCN(c2nc(OCC3CCCN3C)nc3c(F)c(-c4nc(N)cc(C)c4C(F)(F)F)c(Cl)cc23)C(C)C1 (configuration not stated) + CCn1c(-c2cccnc2C(C)OC)c2c3cc(ccc31)N1CCOC(CC(NC(=O)C(C(C)C)N(C)C(=O)C3(F)CCN(C(=O)C#CC(C)(C)N(C)C)CC3)C(=O)N3CCCC(N3)C(=O)OCC(C)(C)C2)C1 have?
94.8

* * *

# System: 485368-065-R3-J5-PDC spheroids with HUVEC/MSC, viability
# EXPERIMENT SUMMARY: Anticancer human tumor 485368-065-R3-J5-PDC cell line growth inhibition [RAS];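 also: spheroids exposed to agents for seven days before readout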
# CONDITION PARAMETERS: curve of first compound; second compound 0.03 µM
pIC50: −log10 of the molar value.
Listed compounds paired with reported pIC50

1) NC1c2ccccc2OC12CCN(c1cnc3c(N4CCCc5ncccc54)n[nH]c3n1)CC2 (stereo not given) + CCn1c(-c2cc(N3CCN(C)CC3)cnc2C(C)OC)c2c3cc(ccc31)-c1csc(n1)CC(NC(=O)C1CC1C)C(=O)N1CCCC(N1)C(=O)OCC(C)(C)C2
> 7.50
2) C=CC(=O)N1CCN(c2nc(OCC3CCCN3C)nc3c(F)c(-c4nc(N)cc(C)c4C(F)(F)F)c(Cl)cc23)C(C)C1 (stereo not given) + CCn1c(-c2cccnc2C(C)OC)c2c3cc(ccc31)N1CCOC(CC(NC(=O)C(C(C)C)N(C)C(=O)C3(F)CCN(C(=O)C#CC(C)(C)N(C)C)CC3)C(=O)N3CCCC(N3)C(=O)OCC(C)(C)C2)C1
< 6.00
3) CC1(O)CCCC1n1c(=O)c(C(F)F)cc2cnc(NC3CCN(S(C)(=O)=O)CC3)nc21 (stereo not given) + CCn1c(-c2cc(N3CCN(C)CC3)cnc2C(C)OC)c2c3cc(ccc31)-c1csc(n1)CC(NC(=O)C1CC1C)C(=O)N1CCCC(N1)C(=O)OCC(C)(C)C2
> 7.50
4) CC(C)n1nc(-c2ccc3oc(N)nc3c2)c2c(N)ncnc21 + CCn1c(-c2cc(N3CCN(C)CC3)cnc2C(C)OC)c2c3cc(ccc31)-c1csc(n1)CC(NC(=O)C1CC1C)C(=O)N1CCCC(N1)C(=O)OCC(C)(C)C2
> 9.50
5) CC1(O)CCCC1n1c(=O)c(C(F)F)cc2cnc(NC3CCN(S(C)(=O)=O)CC3)nc21 (stereo not given) + CCn1c(-c2cccnc2C(C)OC)c2c3cc(ccc31)N1CCOC(CC(NC(=O)C(C(C)C)N(C)C(=O)C3(F)CCN(C(=O)C#CC(C)(C)N(C)C)CC3)C(=O)N3CCCC(N3)C(=O)OCC(C)(C)C2)C1
6.60

Suppose we examine the compound C[C@@H](NC(=O)c1ncnc(N)c1Cl)c1ncc(C(=O)Nc2cc(C(F)(F)F)c(Cl)cn2)s1 + CCn1c(-c2cc(N3CCN(C)CC3)cnc2C(C)OC)c2c3cc(ccc31)-c1csc(n1)CC(NC(=O)C1CC1C)C(=O)N1CCCC(N1)C(=O)OCC(C)(C)C2 ; what pIC50 value has been reported?
> 7.50

Look at this compound and give its reported pIC50. CC(C)NCC(C(=O)N1CCN(c2ncnc3c2C(C)CC3O)CC1)c1ccc(Cl)cc1 (stereo not given) + CCn1c(-c2cc(N3CCN(C)CC3)cnc2C(C)OC)c2c3cc(ccc31)-c1csc(n1)CC(NC(=O)C1CC1C)C(=O)N1CCCC(N1)C(=O)OCC(C)(C)C2
> 7.50

Would you mind telling me what pIC50 value was observed for C=CC(=O)N1CCN(c2nc(OCC3CCCN3C)nc3c(F)c(-c4nc(N)cc(C)c4C(F)(F)F)c(Cl)cc23)C(C)C1 (stereo not given) + CCn1c(-c2cc(N3CCN(C)CC3)cnc2C(C)OC)c2c3cc(ccc31)-c1csc(n1)CC(NC(=O)C1CC1C)C(=O)N1CCCC(N1)C(=O)OCC(C)(C)C2 ?
> 8.50

* * *

# Test system: 485368-065-R3-J5-PDC spheroids with HUVEC/MSC, viability
# EXPERIMENT SUMMARY: Anticancer human tumor 485368-065-R3-J5-PDC cell line growth inhibition [RAS];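 also: spheroids exposed to agents for seven days before readout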
# CONDITION PARAMETERS: curve of first compound; second compound 0.1 µM
Recorded pIC50 values for a group of molecules are listed next.
To interpret pIC50, take it as minus log10 of a concentration measured in moles per litre.

Take a look at these entries with their results.
1. CCC(CC)c1cc(NC2CCC(N)C2)n2nccc2n1 (stereo not given) + C=CC(=O)N1CCN(c2nc(OCC3CCCN3C)nc3c(F)c(-c4nc(N)cc(C)c4C(F)(F)F)c(Cl)cc23)C(C)C1
5.71
2. Nc1ccn(C2OC(CO)C(O)C2(F)F)c(=O)n1 (stereo not given) + C=CC(=O)N1CCN(c2nc(OCC3CCCN3C)nc3c(F)c(-c4nc(N)cc(C)c4C(F)(F)F)c(Cl)cc23)C(C)C1
8.21

Fill in: pIC50 of CC1(O)CCCC1n1c(=O)c(C(F)F)cc2cnc(NC3CCN(S(C)(=O)=O)CC3)nc21 (stereo not given) + C=CC(=O)N1CCN(c2nc(OCC3CCCN3C)nc3c(F)c(-c4nc(N)cc(C)c4C(F)(F)F)c(Cl)cc23)C(C)C1 is ___
6.59

* * *

# Test system: 485368-065-R3-J5-PDC spheroids with HUVEC/MSC, viability
# EXPERIMENT SUMMARY: Anticancer human tumor 485368-065-R3-J5-PDC cell line growth inhibition [RAS];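 also: spheroids exposed to agents for seven days before readout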
# CONDITION PARAMETERS: second compound 0.003 µM; first compound 0.01 µM; stronger effect = lower value
# Description: RAS pathway inhibitors in Combinations in Complex Spheroids A high-throughput screen of multi-cell type tumor spheroids was designed to identify active combinations of RAS pathway inhibitors and targeted small molecules. Complex spheroids include a stromal component modeled by human endothelial cells (HUVEC) and fibroblasts modeled by human mesenchymal stem cells (MSCs). […] Compounds. […] If the clinical Cmax for an agent had not been determined, the highest concentration tested was 10 microM. […]
EXPERIMENTAL READOUT: viability, T/C (%)
Kindly provide the numeric value in % only, without the unit symbol.

Here are 3 compounds together with their reported answers.
1. C=CC(=O)Nc1cc(Nc2nccc(-c3cn(C)c4ccccc34)n2)c(OC)cc1N(C)CCN(C)C + CCn1c(-c2cccnc2C(C)OC)c2c3cc(ccc31)N1CCOC(CC(NC(=O)C(C(C)C)N(C)C(=O)C3(F)CCN(C(=O)C#CC(C)(C)N(C)C)CC3)C(=O)N3CCCC(N3)C(=O)OCC(C)(C)C2)C1
95.3
2. C=CC(=O)N1CCN(c2nc(OCC3CCCN3C)nc3c(F)c(-c4nc(N)cc(C)c4C(F)(F)F)c(Cl)cc23)C(C)C1 (centres undefined) + CCn1c(-c2cc(N3CCN(C)CC3)cnc2C(C)OC)c2c3cc(ccc31)-c1csc(n1)CC(NC(=O)C1CC1C)C(=O)N1CCCC(N1)C(=O)OCC(C)(C)C2
21.4
3. CC(C)n1nc(-c2ccc3oc(N)nc3c2)c2c(N)ncnc21 + CCn1c(-c2cccnc2C(C)OC)c2c3cc(ccc31)N1CCOC(CC(NC(=O)C(C(C)C)N(C)C(=O)C3(F)CCN(C(=O)C#CC(C)(C)N(C)C)CC3)C(=O)N3CCCC(N3)C(=O)OCC(C)(C)C2)C1
66.8

I am curious: what viability, T/C value has been reported for CC(C)n1nc(-c2ccc3oc(N)nc3c2)c2c(N)ncnc21 + CCn1c(-c2cc(N3CCN(C)CC3)cnc2C(C)OC)c2c3cc(ccc31)-c1csc(n1)CC(NC(=O)C1CC1C)C(=O)N1CCCC(N1)C(=O)OCC(C)(C)C2 ?
15.1

* * *

# viability, T/C per entry
# System: 485368-065-R3-J5-PDC spheroids with HUVEC/MSC, viability
# EXPERIMENT SUMMARY: Anticancer human tumor 485368-065-R3-J5-PDC cell line growth inhibition [RAS];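 also: spheroids exposed to agents for seven days before readout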
# CONDITION PARAMETERS: second compound 0.1 µM; first compound 0.3 µM; stronger effect = lower value

// lookup viability, T/C for CC1(C)CCC(Nc2ncc(C(F)(F)F)c(-c3c[nH]c4c(P(C)(C)=O)c(C#N)ccc34)n2)CN1 (centres undefined) + C#Cc1c(F)ccc2cc(O)cc(-c3ncc4c(N5CC6CCC(C5)N6)nc(OCC56CCCN5CC(F)C6)nc4c3F)c12
33.6%
